MEASURED TARGET: Brain CCK receptor (Mus musculus)
Construct: from tissue; host or cells: forebrain membranes of male CF-1 mice
Sequence (P56481 1-453): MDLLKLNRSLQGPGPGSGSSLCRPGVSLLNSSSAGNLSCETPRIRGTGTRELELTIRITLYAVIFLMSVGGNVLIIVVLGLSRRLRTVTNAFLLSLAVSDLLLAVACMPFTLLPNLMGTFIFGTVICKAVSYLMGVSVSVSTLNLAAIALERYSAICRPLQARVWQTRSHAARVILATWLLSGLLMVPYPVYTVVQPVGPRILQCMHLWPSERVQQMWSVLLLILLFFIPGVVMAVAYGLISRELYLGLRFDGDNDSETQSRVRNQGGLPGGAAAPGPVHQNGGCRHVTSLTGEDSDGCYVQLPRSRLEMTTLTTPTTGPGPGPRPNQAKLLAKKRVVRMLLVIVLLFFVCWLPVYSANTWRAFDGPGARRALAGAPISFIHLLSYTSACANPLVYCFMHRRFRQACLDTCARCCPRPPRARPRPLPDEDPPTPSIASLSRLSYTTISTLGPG
PROTOCOL DESCRIPTION: Brain CCK receptor binding (mouse brain membranes, 125I-CCK-8 sulfate)
CONDITIONS: mouse brain membranes; Mean ± SEM, n = 3; values without SEM n = 1; read-out: Brain IC50
Protocol: Brain CCK receptor binding was performed using mouse brain membranes according to the method of Chang and Lotti (Proc. Natl. Acad. Sci. 83: 4923-4926, 1986). Male CF-1 mice, 23-25 g were sacrificed by cervical dislocation, the forebrain removed and placed in ice cold 50 mM Tris buffer, pH 7.4. […] The filters were washed twice with 3 ml of 50 mM Tris buffer, pH 7.4, containing 0.01% BSA and then counted for radioactivity in plastic tubes with a Micromedic 10/600 automatic gamma counter. […]
OBSERVED PROPERTY: IC50

Some molecules with recorded IC50:
{"columns": ["MOLECULE", "IC50"],
 "data": [
  ["COc1cccc(-n2c(CC(C)c3c[nH]c4ccc(Br)cc34)nc3ccccc3c2=O)c1 (stereo not shown)", "100 nM"],
  ["CCOc1ccc(-n2c(CCc3c[nH]c4ccc(Br)cc34)nc3ccccc3c2=O)cc1C", "65 nM"],
  ["CCN(CC)c1ccc(-n2c(CCc3c[nH]c4ccc(Br)cc34)nc3ccccc3c2=O)cc1", "47 nM"]
]}

Now look at this entry.
# molecule `O=c1c2ccccc2nc(CCc2c[nH]c3ccc(Cl)cc23)n1-c1cccc(C(F)(F)F)c1` ; its IC50 = 230 nM

----------
MEASURED TARGET: peripheral type CCK receptors in rat pancreas (Rattus norvegicus)
Construct: from tissue; host or cells: pancreas membranes of male Sprague-Dawley rats
Sequence (P30551 whole entry): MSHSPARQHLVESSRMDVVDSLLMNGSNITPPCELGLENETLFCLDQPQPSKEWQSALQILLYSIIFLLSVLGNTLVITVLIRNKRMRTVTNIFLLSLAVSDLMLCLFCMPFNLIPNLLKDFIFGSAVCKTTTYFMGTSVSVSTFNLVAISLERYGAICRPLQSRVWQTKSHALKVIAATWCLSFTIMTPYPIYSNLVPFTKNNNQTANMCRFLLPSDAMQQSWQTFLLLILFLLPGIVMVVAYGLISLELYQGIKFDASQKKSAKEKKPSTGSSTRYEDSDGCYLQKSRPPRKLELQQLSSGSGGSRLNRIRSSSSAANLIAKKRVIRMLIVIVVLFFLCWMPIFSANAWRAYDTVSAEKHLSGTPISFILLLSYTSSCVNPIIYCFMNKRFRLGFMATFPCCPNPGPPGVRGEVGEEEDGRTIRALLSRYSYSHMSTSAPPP
PROTOCOL DESCRIPTION: Binding to peripheral type CCK receptors in rat pancreas (3H-L364,718)
CONDITIONS: rat pancreas; 10 μM; read-out: Pancreas % inhibition in binding assay
OBSERVED PROPERTY: inhibition at 10 µM

Some compounds with recorded inhibition at 10 µM:
{"columns": ["GIVEN SMILES", "MEASURED TARGET", "OBSERVED PROPERTY", "RESULT"],
 "data": [
  ["CC(C)Oc1cccc(-n2c(CCc3c[nH]c4ccc(Br)cc34)nc3ccccc3c2=O)c1", "peripheral type CCK receptors in rat pancreas (Rattus norvegicus)", "inhibition at 10 µM", "-1.4%"],
  ["COc1cccc(-n2c(CCc3c[nH]c4ccc(Br)cc34)nc3ccccc3c2=O)c1", "peripheral type CCK receptors in rat pancreas (Rattus norvegicus)", "inhibition at 10 µM", "5.3%"]
]}

Now look at this entry.
# compound `O=c1c2ccccc2nc(CCc2c[nH]c3ccc(Cl)cc23)n1-c1cccc(Br)c1` ; its inhibition at 10 µM = 2%
